System: SF-295
test_description: NCI tumour cell line growth inhibition, 48 h
Calls of active or inactive are those of the source. Cut-off read from the data, not from the text of the source: active = GI50 up to about 1.1 µM and inactive = higher.
Output constraint: value belongs to active, inactive

Use the examples below as a reference point.
O=C1c2ccccc2C(=O)c2c(NCC3CO3)cccc21 (stereo not given)	inactive
NS(=O)(=O)c1ccc(Nc2c3ccccc3nc3c(C(=O)NCCO)cccc23)cc1	active
Cn1c(=O)c2ccccc2c2ccccc21	inactive
C/C=C/C1(C)/C(=N\O)C(C)(CCC)C(=O)N1O (stereo not given)	inactive
COc1cc(/C=C2\N=C(c3ccccc3)N(c3nc4cc(C)c(C)cc4s3)C2=O)cc(OC)c1OC	inactive
CC1(C)[C@@H]2CC[C@@]1(C)C1(S[S+]1[O-])C21Cc2ccccc2C1 (stereo not given in full)	inactive

// outcome(item) with item = "O=C1C(O)=C(CCCCCCCCC2CCCCC2)C(=O)c2ccccc21"
inactive

// outcome(item) with item = "CCN(Cc1cc(Cl)cc(C)c1O)Cc1c(O)ccc2ccccc12"
inactive

// outcome(item) with item = "CC[C@@]1(C[C@H]2C[C@@]3(C(=O)OC)c4[nH]c5ccccc5c4CCN3C2=S)COC2(CCCCC2)O1"
inactive

// outcome(item) with item = "O=[N+]([O-])c1ccc2nc(O)n[n+]([O-])c2c1"
inactive
